# Assayed Target: Human EphA2 (ephrin receptor A2) on cells (human, UniProt P29317 25-976)
# Sequence (P29317 25-976): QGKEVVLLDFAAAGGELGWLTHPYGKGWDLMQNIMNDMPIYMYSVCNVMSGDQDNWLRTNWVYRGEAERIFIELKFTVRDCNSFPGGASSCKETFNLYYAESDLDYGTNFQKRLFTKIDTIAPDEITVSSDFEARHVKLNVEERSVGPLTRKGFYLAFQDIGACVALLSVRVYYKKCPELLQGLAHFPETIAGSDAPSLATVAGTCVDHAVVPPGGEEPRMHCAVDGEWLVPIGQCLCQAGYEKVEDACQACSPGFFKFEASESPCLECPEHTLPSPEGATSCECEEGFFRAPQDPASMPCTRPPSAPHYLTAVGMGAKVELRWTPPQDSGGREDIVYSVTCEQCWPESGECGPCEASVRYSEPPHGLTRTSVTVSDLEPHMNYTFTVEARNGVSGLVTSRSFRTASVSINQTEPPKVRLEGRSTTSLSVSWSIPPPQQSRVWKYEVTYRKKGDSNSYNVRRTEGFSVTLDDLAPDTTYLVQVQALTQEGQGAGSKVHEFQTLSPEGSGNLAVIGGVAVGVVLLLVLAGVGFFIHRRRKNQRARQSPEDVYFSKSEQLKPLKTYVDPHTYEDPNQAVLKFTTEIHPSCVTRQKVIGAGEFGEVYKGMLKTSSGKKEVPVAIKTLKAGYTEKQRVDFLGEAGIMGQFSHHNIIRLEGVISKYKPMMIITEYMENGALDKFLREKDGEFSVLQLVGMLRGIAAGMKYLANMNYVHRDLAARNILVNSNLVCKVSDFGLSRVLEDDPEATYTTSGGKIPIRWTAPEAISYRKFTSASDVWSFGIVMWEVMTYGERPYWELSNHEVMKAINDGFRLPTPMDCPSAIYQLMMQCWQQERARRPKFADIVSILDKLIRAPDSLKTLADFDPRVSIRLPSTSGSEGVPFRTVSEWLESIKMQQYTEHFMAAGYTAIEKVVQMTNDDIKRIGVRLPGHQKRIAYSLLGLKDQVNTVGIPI
# Test Method Notes: cell-based or functional assay
We begin with a simple list: items and their reported ADCC - EC50 (nM), Trial 1, A549.
Could you give me the number in nM? Just the number is fine.

INSERT INTO assay_data (binder, assay_result) VALUES
  ('AB-010696 (antibody, V domains shown) VH: QVQLQQWGAGLLKPSETLSLTCAVYGGSFSGYYWSWIRQPPGKGLEWIGEINHRGSINYNNYNPSLKSRVTISVDTSKNQFSLKLSSVTAADTAVYYCAKPLRPHCINGVCYSGDAFDIWGQGTMVTVAS VL: SYVLTQPPSVSVAPGQTARITCGGNNIGSMNVHWYQQKPGQAPVLVVYDDSDRPSGIPERFSGSNSGNTATLTISRVEAGDEADYYCQVWDSSSDHVVFGGGTKLTVL', 1.9);

Alright, here's another binder for you.
// ADCC - EC50 (nM), Trial 1, A549 lookup, binder = AB-010702 (antibody, V domains shown) VH: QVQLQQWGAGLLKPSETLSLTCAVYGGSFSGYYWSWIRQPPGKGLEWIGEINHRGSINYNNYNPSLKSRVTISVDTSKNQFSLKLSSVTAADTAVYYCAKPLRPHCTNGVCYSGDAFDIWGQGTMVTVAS VL: SYVLTQPPSVSVAPGQTARITCGGNNIGYKNVHWYQQKPGQAPVLVVYDDSDRPSGIPERFSGSNSGNTATLTISRVEAGDEADYYCQVWDSESDHVVFGGGTKLTVL , result: 0.065

Recorded values, source patent US20250276077A1.
